Reference source for all entries: paper PMC13224317

# System: icSARS-CoV-2-nLuc
# measurement.description: microbe, parasite or virus in culture
# Format: cell-based, SARS-CoV-2
# test.conditions: Severe acute respiratory syndrome coronavirus 2, A549-ACE2, read-out: IC50, susceptibility of icSARS-CoV-2-nLuc to reference drugs, luminescence readout
Task for the reader: assign each of the following molecules its reported IC50.
Just the number please, in nM, no unit attached.

Quick one: IC50 of `CC(C)c1nc(CN(C)C(=O)N[C@H](C(=O)N[C@@H](Cc2ccccc2)C[C@H](O)[C@H](Cc2ccccc2)NC(=O)OCc2cncs2)C(C)C)cs1` ?
7200

# repeat for `CC(C)(C)[C@H](NC(=O)C(F)(F)F)C(=O)N1C[C@H]2[C@@H]([C@H]1C(=O)N[C@H](C#N)C[C@@H]1CCNC1=O)C2(C)C`
30

Then what about the molecule CC(C)(C)NC(=O)N[C@H](C(=O)N1C[C@H]2[C@@H]([C@H]1C(=O)NC(CC1CCC1)C(=O)C(N)=O)C2(C)C)C(C)(C)C (some centres unmarked) ?
3000

Same lookup for `CC(C)C(=O)OC[C@H]1O[C@@H](n2ccc(NO)nc2=O)[C@H](O)[C@@H]1O` , please.
1200

What about `CCCC[C@H](NC(=O)[C@@H]1[C@@H]2[C@H](CN1C(=O)[C@@H](NC(=O)NC1(CS(=O)(=O)C(C)(C)C)CCCCC1)C(C)(C)C)C2(C)C)C(=O)C(=O)NC1CC1` ?
2000
